Target Entity: recombinant soluble homotrimeric HA of A/Japan/305/57 (H2N2) (Influenza A virus A/Japan/305/1957 (H2N2))
Assay Overview: HA microarray, BCC supernatant
Assay Context: remark: other sources report otherwise
Reported Metric: Trimeric HA Binding RLU (RLU)
All answers are understood in RLU, so give the number only.

Record summary for TCN-554 (5277_M05) (antibody, V domains shown) VH: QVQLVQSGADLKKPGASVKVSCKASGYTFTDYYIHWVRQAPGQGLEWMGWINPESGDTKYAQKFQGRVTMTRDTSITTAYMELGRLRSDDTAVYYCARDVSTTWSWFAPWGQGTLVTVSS VL: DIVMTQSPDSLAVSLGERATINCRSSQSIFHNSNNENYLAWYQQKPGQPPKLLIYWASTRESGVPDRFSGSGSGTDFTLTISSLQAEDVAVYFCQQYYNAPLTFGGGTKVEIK : reported Trimeric HA Binding RLU = 328

Record summary for TCN-536 (5095_N01) (antibody, V domains shown) VH: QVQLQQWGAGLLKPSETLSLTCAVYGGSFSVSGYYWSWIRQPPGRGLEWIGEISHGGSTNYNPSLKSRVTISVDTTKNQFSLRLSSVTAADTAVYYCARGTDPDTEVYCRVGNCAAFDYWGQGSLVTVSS VL: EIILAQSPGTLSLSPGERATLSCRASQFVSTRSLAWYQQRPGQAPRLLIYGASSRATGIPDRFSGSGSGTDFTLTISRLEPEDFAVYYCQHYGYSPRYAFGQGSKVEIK : reported Trimeric HA Binding RLU = 121

Record summary for TCN-563 (5237_B21) (antibody, V domains shown) VH: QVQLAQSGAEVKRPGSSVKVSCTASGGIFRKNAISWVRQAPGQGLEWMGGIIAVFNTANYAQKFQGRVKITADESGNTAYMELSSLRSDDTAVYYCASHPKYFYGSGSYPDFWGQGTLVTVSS VL: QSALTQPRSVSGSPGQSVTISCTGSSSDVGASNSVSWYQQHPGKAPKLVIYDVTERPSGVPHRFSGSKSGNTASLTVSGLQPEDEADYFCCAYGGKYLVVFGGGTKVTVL : reported Trimeric HA Binding RLU = 6610

Record summary for TCN-523 (5248_A17) (antibody, V domains shown) VH: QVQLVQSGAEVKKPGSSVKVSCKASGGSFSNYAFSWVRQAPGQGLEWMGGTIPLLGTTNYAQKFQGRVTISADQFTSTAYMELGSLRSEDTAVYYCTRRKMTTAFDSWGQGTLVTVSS VL: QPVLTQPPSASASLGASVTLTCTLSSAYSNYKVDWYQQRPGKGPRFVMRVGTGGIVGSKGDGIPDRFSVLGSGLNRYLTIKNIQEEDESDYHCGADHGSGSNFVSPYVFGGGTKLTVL : reported Trimeric HA Binding RLU = 5110

Record summary for TCN-547 (5092_F11) (antibody, V domains shown) VH: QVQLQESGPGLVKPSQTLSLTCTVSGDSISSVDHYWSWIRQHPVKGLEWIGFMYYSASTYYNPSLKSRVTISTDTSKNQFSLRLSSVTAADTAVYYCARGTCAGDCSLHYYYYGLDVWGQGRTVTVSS VL: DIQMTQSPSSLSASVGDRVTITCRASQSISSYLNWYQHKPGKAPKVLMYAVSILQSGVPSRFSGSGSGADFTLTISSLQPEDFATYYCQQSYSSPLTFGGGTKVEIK : reported Trimeric HA Binding RLU = 40
